This section presents compounds with their documented IC50 values.
- SUBJECT OF TEST: UniProtKB P04036
Kindly provide the numeric value in µM only, without the unit symbol.

>>> value("O=C(NCCSc1cc(C(=O)O)nc(C(=O)O)c1)c1ccccc1")
78.3

Turning to the following compound.
# query: IC50 of entry O=C(O)c1cc(SCCNC(=O)c2cc3cccc(O)c3cc2O)cc(C(=O)O)n1
2

* * *

- SUBJECT OF TEST: E. coli DHPR enzyme (Escherichia coli)
- Sequence (P04036 whole entry): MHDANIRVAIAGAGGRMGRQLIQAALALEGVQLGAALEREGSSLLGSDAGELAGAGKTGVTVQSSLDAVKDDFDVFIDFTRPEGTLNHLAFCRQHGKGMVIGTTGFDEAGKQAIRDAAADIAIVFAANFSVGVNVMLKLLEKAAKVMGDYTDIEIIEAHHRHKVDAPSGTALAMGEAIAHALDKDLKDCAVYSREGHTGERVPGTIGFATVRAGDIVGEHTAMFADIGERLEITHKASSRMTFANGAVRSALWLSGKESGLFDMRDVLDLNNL
- PROCEDURE SUMMARY: Dihydrodipicolinate reductase (DHPR) kinetic spectrophotometric assay, NADPH oxidation at 340 nm
- Type: biochemical
- STUDY CONDITIONS: bi-ligands and pyridine dicarboxylate derivatives, Example VII, FIG. 8
This section presents compounds with their documented IC50 values.

Worked cases, answers included:
>>> value("O=C1NC(=S)SC1=Cc1ccc(-c2cccc(C(=O)NCCSc3cc(C(=O)O)nc(C(=O)O)c3)c2)o1 [compound 12d]")
"~0.254 µM"
>>> value("O=C(NCCSc1cc(C(=O)O)nc(C(=O)O)c1)c1ccc(-c2ccc(-c3nc4cc([N+](=O)[O-])ccc4[nH]3)o2)cc1 [compound 21a]")
"~0.758 µM"
>>> value("O=C1NC(=O)C(=Cc2ccc(-c3ccc(C(=O)NCCSc4cc(C(=O)O)nc(C(=O)O)c4)cc3)o2)S1 [compound 12a]")
"~0.536 µM"
>>> value("O=C1NC(=S)SC1=Cc1ccc(-c2ccc(C(=O)NCCSc3cc(C(=O)O)nc(C(=O)O)c3)cc2)o1 [compound 12b]")
"~7.1 µM"
>>> value("O=C1NC(=O)C(=Cc2ccc(-c3ccc(O)c(C(=O)NCCSc4cc(C(=O)O)nc(C(=O)O)c4)c3)o2)S1 [compound 12f]")
"~4.91 µM"

Turning to the following compound.
# query: IC50 of entry O=C1NC(=O)C(=Cc2ccc(-c3cccc(C(=O)NCCSc4cc(C(=O)O)nc(C(=O)O)c4)c3)o2)S1 [compound 12c]
~13 µM
